Field: Neut IC50 (ug/ml) subtype A. Provide a value for each of the binders that follow.
Target: RSV F protein of subtype A strain A2, on virus (respiratory syncytial virus subtype A …, UniProt P03420 26-574)
Test: cell-based or functional assay
Give bare numbers, in µg/mL.

>  <binder>
ADI-15619 (antibody, V domains shown, IgG) VH: QVQLVQSGAEAKKPGASVKVSCTASGYTFTNDINWVRQATGQGLEWMGWMNPNNGHTGYGQKFEDRVTLTRDSSRSTAYMELSSLRFEDTAVYYCVYNFWSDSSVSWGRGTLVTVSS VL: QSVVTQPPSVSGAPGQSVAISCTGSSSNIGPAYDVHWYQQTPGAAPKLLIYGDSNRPSGVPDRFSTSKSGTSASLAITGLQAEDEADYYCQSFDSSLRGYVFGTGTKVTVL

>  <displayUnit>
µg/mL

>  <Neut IC50 (ug/ml) subtype A>
1.45

$$$$
>  <binder>
ADI-15660 (antibody, V domains shown, IgG) VH: EVQLVQSGTEVKKPGESLKISCKASGYSSFPNWIGWVRQMPGKGLEYMGSIFPDDSNTRYSPSFRGLVAISADKSLRTAYLQWSSLKASDSAIYYCARGPFPHYFDSWGQGTLVTVSS VL: NFMLTQPHSVSESPGKTVTISCTRSSGSIARNYVQWYQQRPGSSPTTVIYEDDQRPPGVPDRFSGSIDSSSNSASLTISGLQTEDEADYYCQSYDPTNQNVFGTGTKLTVL

>  <displayUnit>
µg/mL

>  <Neut IC50 (ug/ml) subtype A>
17.3

$$$$

Turning to the following binder.
Asked: State its Neut IC50 (ug/ml) subtype A: ADI-15569 (antibody, V domains shown, IgG) VH: EVQLVESGAEVKKPGASVKVSCKASGYTFANYGITWVRQAPGQGLEYMGWISAYNGNTNYAQKFQGRVTMTTDTSTSTAYMELRSLRSDDTAIYYCARDPGVTAAVLLDYWGQGALVTVSS VL: DIVLTQSPLSLPVTLGQPASISCRSSQSLVFSDGNTYLSWFQQRPGQSPRRLLYKVSNRDSGVPDRFSGSGSGTDFTLTISRVEAEDVGVYYCLQGTPPYTFGQGTKVDIK
Given back: 0.006
